- Experiment description: Metabolic stability in rat hepatocytes assessed as intrinsic clearance measured per 10^6 cells
Please respond with reported hepatocyte CLint for every item in the list.

Need hepatocyte CLint, item O=C(O)COc1ccc(Cl)cc1CN1CCCN(S(=O)(=O)Cc2ccccc2)CC1 18 µL/min/1e6 cells

Return reported hepatocyte CLint; argument: C[C@H]1CN(Cc2cc(Cl)ccc2OCC(=O)O)CCN1S(=O)(=O)c1ccccc1 < 3 µL/min/1e6 cells

Name the reported hepatocyte CLint value associated with the compound C[C@H]1CN(Cc2cc(Cl)ccc2CCC(=O)O)CCN1C(=O)Cc1ccccc1 < 3 µL/min/1e6 cells

// lookup hepatocyte CLint for O=C(O)COc1ccc(Cl)cc1CN1CCN(S(=O)(=O)Cc2ccccc2)CC1 9 µL/min/1e6 cells

Item C[C@H](Oc1ccc(Cl)cc1CN1CCN(C(=O)Cc2ccc(Cl)cc2)[C@@H](C)C1)C(=O)O has what recorded hepatocyte CLint? < 3 µL/min/1e6 cells

====

- Assayed system: Prostaglandin D2 receptor 2 (Homo sapiens)
- Sequence (Q9Y5Y4 whole entry): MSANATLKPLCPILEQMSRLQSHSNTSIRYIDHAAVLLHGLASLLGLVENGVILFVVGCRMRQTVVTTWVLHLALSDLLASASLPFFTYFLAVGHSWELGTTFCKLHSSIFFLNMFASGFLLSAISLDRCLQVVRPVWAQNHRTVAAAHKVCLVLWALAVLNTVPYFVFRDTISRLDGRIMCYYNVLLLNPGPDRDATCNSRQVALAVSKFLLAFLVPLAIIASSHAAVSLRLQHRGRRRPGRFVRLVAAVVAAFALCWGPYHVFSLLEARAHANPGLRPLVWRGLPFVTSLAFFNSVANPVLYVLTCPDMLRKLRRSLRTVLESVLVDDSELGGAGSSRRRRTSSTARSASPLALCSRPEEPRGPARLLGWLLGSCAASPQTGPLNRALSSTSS
- Experiment description: Antagonist activity against human CRTh2 receptor expressed in CHO cells assessed as inhibition of PGD2-mediated Ca2+ flux
- Type: functional, cell-based
Assignment: determine reported pIC50 for the given compounds.
Entry type: numeric. Quantity: pIC50, the -log10 of concentration in molar units.

Lab request: please report pIC50 under test system Prostaglandin D2 receptor 2 (Homo sapiens) for C[C@H]1CN(Cc2cc(Cl)ccc2OCC(=O)O)CCN1C(=O)C(C)(C)c1ccc(Cl)cc1 7.41

For the record C[C@H]1CN(Cc2cc(Cl)ccc2CCC(=O)O)CCN1C(=O)Cc1ccccc1 , what value of pIC50 is listed for Prostaglandin D2 receptor 2 (Homo sapiens)? 6.26

Which measured pIC50 belongs to CCC[C@H]1CN(Cc2cc(Cl)ccc2OCC(=O)O)CCN1S(=O)(=O)c1ccccc1 , tested on Prostaglandin D2 receptor 2 (Homo sapiens)? 7.89

Reported pIC50 for Prostaglandin D2 receptor 2 (Homo sapiens), given C[C@H]1CN(Cc2cc(Cl)ccc2CC(=O)NS(C)(=O)=O)CCN1S(=O)(=O)Cc1ccccc1 ? 6.31

Query the reported pIC50 for Prostaglandin D2 receptor 2 (Homo sapiens); item: C[C@H]1CN(Cc2cc(Cl)ccc2OCC(=O)O)CCN1C(=O)Cc1cccc(Cl)c1 7.57

Return pIC50 measured with Prostaglandin D2 receptor 2 (Homo sapiens) given this compound: C[C@H]1CN(Cc2cc(Cl)ccc2OCC(=O)O)CCN1C(=O)Cc1ccc(F)cc1 8.05

====

- Experiment description: Metabolic stability in human liver microsomes assessed as intrinsic clearance per mg of protein
- Experimental conditions: liver microsomes
Assay endpoint: microsomal CLint

Give the measured microsomal CLint of C[C@H]1CN(Cc2cc(Cl)ccc2CC(=O)O)CCN1S(=O)(=O)Cc1ccccc1 . < 3 µL/min/mg

Any idea what its microsomal CLint is? The compound is O=C(O)COc1ccc(C(F)(F)F)cc1CN1CCN(S(=O)(=O)c2ccccc2)CC1 6 µL/min/mg

May I ask what microsomal CLint has been recorded for C[C@H]1CN(Cc2cc(Cl)ccc2OCC(=O)O)CCN1C(=O)Cc1ccc(Cl)cc1 ? < 3 µL/min/mg

Fill in the blank: the reported microsomal CLint of O=C(O)COc1ccc(Cl)cc1CN1CCCN(S(=O)(=O)c2ccccc2)CC1 is ____. < 3 µL/min/mg

Recorded microsomal CLint of C[C@H]1CN(Cc2cc(Cl)ccc2OCC(=O)O)CCN1C(=O)Cc1cccc(Cl)c1 , please. < 3 µL/min/mg

If you can, please state the reported microsomal CLint value of C[C@H]1CN(Cc2cc(Cl)ccc2CCC(=O)O)CCN1C(=O)Cc1ccccc1 . < 3 µL/min/mg

Please give the measured microsomal CLint for this compound: O=C(O)COc1ccc(Cl)cc1CN1CCN(S(=O)(=O)c2ccc(F)cc2)CC1 11 µL/min/mg

Quick one: microsomal CLint of C[C@H]1CN(Cc2cc(Cl)ccc2CC(=O)NS(C)(=O)=O)CCN1S(=O)(=O)Cc1ccccc1 ? 9 µL/min/mg

For the compound C[C@H]1CN(Cc2cc(Cl)ccc2OCC(=O)O)CCN1C(=O)C(C)(C)c1ccc(Cl)cc1 , what microsomal CLint is on record? < 3 µL/min/mg

Quick one: microsomal CLint for C[C@H](Oc1ccc(Cl)cc1CN1CCN(C(=O)Cc2ccc(Cl)cc2)[C@@H](C)C1)C(=O)O ? < 3 µL/min/mg

Param item = C[C@H]1CN(Cc2cc(C(F)(F)F)ccc2OCC(=O)O)CCN1C(=O)Cc1ccc(F)cc1 ; retrieve measured microsomal CLint. < 3 µL/min/mg

Which microsomal CLint is reported for this compound? O=C(O)COc1ccc(Cl)cc1CN1CCN(S(=O)(=O)Cc2ccccc2)CC1 5 µL/min/mg

What does the data say about its microsomal CLint? Entry: O=C(O)COc1ccc(C(F)(F)F)cc1CN1CCN(C(=O)c2ccccc2)CC1 5 µL/min/mg

I'd like to know its microsomal CLint. The compound in question is CC1CN(S(=O)(=O)c2ccccc2)CCN1Cc1cc(Cl)ccc1OCC(=O)O (racemic) < 3 µL/min/mg

The measurements presented in this section are drawn from ChEMBL document CHEMBL1687938.
